Recorded values, source paper PMC9227536.

# procedure text: PK study in mice (intravenous and oral)
# Format: in vivo, male ICR mice
# run conditions: male, ICR, mouse, plasma, oral 20 mg/kg
quantity kind: Tmax (min)
Give your result in min as a bare value.

Tmax recorded for this compound, CC(C)(C)[C@H](NC(=O)[C@H](CC1CCCC1)CN(O)C=O)C(=O)N1CCC(NCc2cc(F)c(F)cc2F)CC1 , is 20

###

# procedure text: PK study in dogs (intravenous and oral)
# Type: in vivo
# run conditions: male, beagle, dog, plasma, iv, 10 mg/kg
quantity kind: AUC(0-inf) (ng·h/mL)
Please state the figure in ng·h/mL; there is no need to write the unit.

CC(C)(C)[C@H](NC(=O)[C@H](CC1CCCC1)CN(O)C=O)C(=O)N1CCC(NCc2cc(F)c(F)cc2F)CC1 [IDP-73152] has a reported AUC(0-inf) of 16600

###

# procedure text: Caco-2 cell bidirectional permeability
# Type: in vitro ADME
# run conditions: human; Caco-2 monolayer, 10 µM, apical-to-basolateral
quantity kind: Papp A→B at 2 h, 10 µM (×10⁻⁶ cm/s)
Dear colleague, please return just the value in ×10⁻⁶ cm/s, with no unit written.

Sample CC(C)(C)[C@H](NC(=O)[C@H](CC1CCCC1)CN(O)C=O)C(=O)N1CCC(NCc2cc(F)c(F)cc2F)CC1 [IDP-73152] ; Papp A→B at 2 h, 10 µM observed: 31.2

###

# procedure text: PK study in rats (intravenous and oral)
# Format: in vivo, Male Sprague Dawley rats
# run conditions: male, Sprague Dawley, rat, plasma, oral 20 mg/kg, read-out: AUCinf
quantity kind: AUC(0-inf) (µg·h/mL)
Entry rule: numbers only, all in µg·h/mL.

# AUC(0-inf) (compound: CC(C)(C)[C@H](NC(=O)[C@H](CC1CCCC1)CN(O)C=O)C(=O)N1CCC(NCc2cc(F)c(F)cc2F)CC1 ) is 5.57

###

# procedure text: Metabolic stability in liver microsomes, dog
# Assay type: in vitro ADME
# run conditions: dog, pH 7.4; dogs liver microsomes 0.5 mg/mL, 1 μM; read-out: CLint,mic
# Description: In this study, the metabolic stability of IDP-73152 in microsomes from mice, rats, dogs, and humans, as well as rat hepatocytes, was determined. […] After the isolation, cell viability during the preparation process was first determined by a trypan blue exclusion assay prior to the stability study. […]
quantity kind: microsomal CLint at 1 μM (µL/min/mg)
Use µL/min/mg as the unit, but write only the number.

Per the records, this compound ( CC(C)(C)[C@H](NC(=O)[C@H](CC1CCCC1)CN(O)C=O)C(=O)N1CCC(NCc2cc(F)c(F)cc2F)CC1 [IDP-73152] ) has microsomal CLint at 1 μM equal to 62.6
